Assay: Fraction unbound in cynomolgus monkey plasma
Assay type: ADME, cell-free, Macaca fascicularis
Measure name: fraction unbound

Smiles: Cc1nc2c(-c3nnc[nH]3)cc(-c3ccnc(N)c3F)cc2n1-c1ccnc2c(F)ccc(F)c12
Measure name: fraction unbound
Measurement: 0.062

----------
Experiment: Volume of distribution at steady state in cynomolgus monkey at 1 mg/kg, iv by ESI-LC/MS/MS analysis
Assay type: ADME, organism-based, Macaca fascicularis
Conditions: in vivo, read-out: Vdss

Smiles: Cc1nc2c(-c3nnc[nH]3)cc(-c3ccnc(N)c3F)cc2n1-c1ccnc2c(F)ccc(F)c12
Unit text: L/kg
Vd: 0.45

----------
Target: PI3-kinase p110-delta/p85-alpha (Homo sapiens, UniProt O00329)
Sequence (P27986 whole entry): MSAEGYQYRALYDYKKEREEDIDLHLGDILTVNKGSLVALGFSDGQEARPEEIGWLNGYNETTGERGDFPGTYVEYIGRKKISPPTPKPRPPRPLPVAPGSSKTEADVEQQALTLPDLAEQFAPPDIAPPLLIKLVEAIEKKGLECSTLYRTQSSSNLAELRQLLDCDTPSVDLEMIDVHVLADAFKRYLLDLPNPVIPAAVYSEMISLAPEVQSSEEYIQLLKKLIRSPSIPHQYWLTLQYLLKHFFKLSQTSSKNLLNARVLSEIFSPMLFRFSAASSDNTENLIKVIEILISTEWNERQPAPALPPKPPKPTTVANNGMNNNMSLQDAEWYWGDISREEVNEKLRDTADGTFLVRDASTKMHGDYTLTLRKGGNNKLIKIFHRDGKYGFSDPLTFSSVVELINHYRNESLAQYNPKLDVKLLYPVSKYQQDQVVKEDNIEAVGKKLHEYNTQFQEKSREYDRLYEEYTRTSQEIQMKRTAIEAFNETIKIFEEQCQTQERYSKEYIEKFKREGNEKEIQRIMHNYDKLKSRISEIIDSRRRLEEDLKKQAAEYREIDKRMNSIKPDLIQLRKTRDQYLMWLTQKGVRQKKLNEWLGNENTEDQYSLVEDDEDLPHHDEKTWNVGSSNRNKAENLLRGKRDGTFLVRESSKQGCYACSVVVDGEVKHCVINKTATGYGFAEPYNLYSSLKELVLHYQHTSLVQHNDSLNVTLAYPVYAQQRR
Sequence (O00329 whole entry): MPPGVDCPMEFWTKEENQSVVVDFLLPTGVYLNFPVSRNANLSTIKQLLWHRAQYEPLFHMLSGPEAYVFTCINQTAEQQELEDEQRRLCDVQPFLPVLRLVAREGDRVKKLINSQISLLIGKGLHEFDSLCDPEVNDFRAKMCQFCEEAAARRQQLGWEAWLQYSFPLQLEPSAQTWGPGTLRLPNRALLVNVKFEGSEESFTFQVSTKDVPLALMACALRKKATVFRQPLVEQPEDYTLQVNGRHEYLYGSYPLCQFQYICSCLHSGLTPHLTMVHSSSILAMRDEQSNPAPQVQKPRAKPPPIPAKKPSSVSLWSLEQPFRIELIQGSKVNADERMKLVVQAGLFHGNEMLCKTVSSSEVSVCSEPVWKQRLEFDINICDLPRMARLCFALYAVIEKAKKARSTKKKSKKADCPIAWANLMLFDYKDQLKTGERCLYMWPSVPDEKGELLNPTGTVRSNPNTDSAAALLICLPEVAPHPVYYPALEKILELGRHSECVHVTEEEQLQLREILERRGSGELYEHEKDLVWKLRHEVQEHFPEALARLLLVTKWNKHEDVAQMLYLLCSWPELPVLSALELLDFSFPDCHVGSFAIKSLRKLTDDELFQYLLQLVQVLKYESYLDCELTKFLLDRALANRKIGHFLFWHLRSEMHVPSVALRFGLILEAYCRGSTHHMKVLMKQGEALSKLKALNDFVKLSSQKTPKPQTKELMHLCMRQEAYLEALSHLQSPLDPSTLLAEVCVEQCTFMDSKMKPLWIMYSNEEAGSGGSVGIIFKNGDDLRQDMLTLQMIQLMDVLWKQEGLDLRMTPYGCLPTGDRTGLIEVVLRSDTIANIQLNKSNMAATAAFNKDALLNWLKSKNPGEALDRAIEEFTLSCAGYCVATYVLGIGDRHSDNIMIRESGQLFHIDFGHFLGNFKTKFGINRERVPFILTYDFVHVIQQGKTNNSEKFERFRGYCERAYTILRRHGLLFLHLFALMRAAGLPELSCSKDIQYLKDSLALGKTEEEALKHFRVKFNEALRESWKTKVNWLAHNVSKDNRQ
Assay: Inhibition of full length human p110delta/p85alpha using PIP2 as substrate after 30 mins by TR-FRET assay

Smiles: Nc1nccc(-c2cc(-c3nnc[nH]3)c3ncn(-c4ccnc5c(F)ccc(F)c45)c3c2)c1F
IC50 / µM: 0.067

----------
Experiment: Intrinsic clearance in human liver microsomes at 1 uM measured in presence of NADPH/UDPGA by UHPLC-HRMS based assay
Format: ADME, Microsome
Conditions: liver microsomes, read-out: CLH (converted)

Smiles: Cc1nc2c(-c3nnc[nH]3)cc(-c3ccnc(N)c3F)cc2n1-c1ccnc2c(F)ccc(F)c12
CLint scaled at 1 µM, mL/min/kg: 2.5

----------
Test: Clearance in rhesus monkey at 1 mg/kg, iv by ESI-LC/MS/MS analysis
Format: ADME, organism-based, Macaca mulatta
Conditions: in vivo

Smiles: Cc1nc2c(-c3nnc[nH]3)cc(-c3ccnc(N)c3F)cc2n1-c1ccnc2c(F)ccc(F)c12
Unit text: mL/min/kg
clearance: 1.67

----------
Assay: Oral bioavailability in Sprague-Dawley rat at 5 mg/kg by ESI-LC/MS/MS analysis
Assay type: ADME, organism-based
Details: in vivo
Measure name: bioavailability (%)

Smiles: Cc1nc2c(-c3nnc[nH]3)cc(-c3ccnc(N)c3F)cc2n1-c1ccnc2c(F)ccc(F)c12
Measure name: bioavailability
Measurement: 60.4

----------
Test: Fraction unbound in rhesus monkey plasma
Type: ADME, cell-free, Macaca mulatta
Measure name: fraction unbound

Smiles: Cc1nc2c(-c3nnc[nH]3)cc(-c3ccnc(N)c3F)cc2n1-c1ccnc2c(F)ccc(F)c12
Measurement: 0.072

----------
Assay: Oral bioavailability in cynomolgus monkey at 5 mg/kg by ESI-LC/MS/MS analysis
Type: ADME, organism-based, Macaca fascicularis
Settings: in vivo
Measure name: bioavailability (%)

Smiles: Cc1nc2c(-c3nnc[nH]3)cc(-c3ccnc(N)c3F)cc2n1-c1ccnc2c(F)ccc(F)c12
Measure name: bioavailability
Unit text: %
Measurement: 64.2

----------
Assay: Volume of distribution at steady state in Sprague-Dawley rat at 1 mg/kg, iv by ESI-LC/MS/MS analysis
Type: ADME, organism-based
Conditions: in vivo, read-out: Vdss
Measure name: Vd (L/kg)

Smiles: Cc1nc2c(-c3nnc[nH]3)cc(-c3ccnc(N)c3F)cc2n1-c1ccnc2c(F)ccc(F)c12
Unit text: L/kg
Measurement: 2.68

----------
Test: Efflux ratio of apparent permeability in human Caco2 cells at 10 uM after 1 to 2 hrs by LC/MS/MS analysis
Assay type: ADME, cell-based
Conditions: Caco-2
Measure name: efflux ratio at 10 µM

Smiles: Cc1nc2c(-c3nnc[nH]3)cc(-c3ccnc(N)c3F)cc2n1-c1ccnc2c(F)ccc(F)c12
Measure name: efflux ratio at 10 µM
Measurement: < 1.5
